// provenance: patent US20180334447A1

assaySystem: recombinant BACE2 protein (Homo sapiens)
Construct: recombinant BACE2 protein in a final concentration of 0.4 μg/ml
Sequence (Q9Y5Z0 63-518): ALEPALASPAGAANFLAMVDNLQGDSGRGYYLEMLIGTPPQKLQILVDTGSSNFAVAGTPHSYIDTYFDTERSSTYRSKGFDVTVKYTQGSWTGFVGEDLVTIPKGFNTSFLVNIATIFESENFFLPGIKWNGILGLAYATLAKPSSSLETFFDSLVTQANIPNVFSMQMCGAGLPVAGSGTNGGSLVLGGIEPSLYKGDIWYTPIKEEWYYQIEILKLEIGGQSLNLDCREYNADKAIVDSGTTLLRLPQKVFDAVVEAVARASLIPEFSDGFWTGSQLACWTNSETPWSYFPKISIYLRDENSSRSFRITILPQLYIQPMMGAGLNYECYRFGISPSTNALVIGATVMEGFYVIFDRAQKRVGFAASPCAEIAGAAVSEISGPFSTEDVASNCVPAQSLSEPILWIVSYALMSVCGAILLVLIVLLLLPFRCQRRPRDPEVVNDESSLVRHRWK
assayDetails: BACE2 biochemical FRET based assay
runConditions: BACE2, 450 minutes at room temperature, pH 5.0; read-out: Biochemical FRET based assay pIC50 (converted)
Please respond with Satisfied when measured IC50 is strictly beneath 4 nM, and with Not satisfied in all other cases.

> print(dat)
                                   compound  qualitativelabel
1  COc1cnc(C(=O)Nc2ccc(F)c([C@@]3(C)N=C(N)[C@](C)(S(C)(=O)=O)C[C@@H]3F)c2)cn1     Not satisfied
2  COc1cnc(C(=O)Nc2ccc(F)c([C@]3(C(F)F)CC[C@](C)(C#N)C(N)=N3)c2)cn1     Not satisfied
3  C[C@@]1(S(C)(=O)=O)CC[C@@](CF)(c2cc(NC(=O)c3ccc(F)cn3)ccc2F)N=C1N         Satisfied
4  COc1cnc(C(=O)Nc2ccc(F)c([C@]3(CF)CC[C@@](C)(C#N)C(N)=N3)c2)cn1     Not satisfied
5  CCS(=O)(=O)C1(C)CCC(CF)(c2cc(NC(=O)c3ccc(F)cn3)ccc2F)N=C1N (stereo not shown)         Satisfied
6  COc1cnc(C(=O)Nc2ccc(F)c(C3(C)CCC(C)(C#N)C(N)=N3)c2)cn1 (single isomer, unassigned) [Compound 15]     Not satisfied
7  CC1(S(C)(=O)=O)CCC(CF)(c2cc(NC(=O)c3ncc(F)cn3)ccc2F)N=C1N (stereo not shown)     Not satisfied

* * *

assaySystem: recombinant BACE1 protein (Homo sapiens)
Construct: recombinant BACE1 protein in a final concentration of 1 μg/ml
Sequence (P56817 46-501): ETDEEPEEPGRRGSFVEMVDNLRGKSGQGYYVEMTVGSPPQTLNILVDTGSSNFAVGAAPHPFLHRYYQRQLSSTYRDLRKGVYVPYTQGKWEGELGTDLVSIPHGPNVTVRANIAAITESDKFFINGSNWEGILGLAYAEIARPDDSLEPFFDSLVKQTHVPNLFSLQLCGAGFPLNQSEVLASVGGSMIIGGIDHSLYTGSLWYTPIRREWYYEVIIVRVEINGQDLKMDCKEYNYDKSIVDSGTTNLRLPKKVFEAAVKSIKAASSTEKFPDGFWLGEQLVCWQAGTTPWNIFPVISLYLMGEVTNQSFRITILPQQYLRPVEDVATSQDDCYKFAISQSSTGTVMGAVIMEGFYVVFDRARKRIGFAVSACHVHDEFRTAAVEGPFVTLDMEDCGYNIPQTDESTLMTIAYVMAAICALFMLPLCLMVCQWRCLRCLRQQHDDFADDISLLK
assayDetails: BACE1 biochemical FRET based assay - Method 1
runConditions: BACE1, 120 minutes at room temperature, pH 5.0; read-out: Biochemical FRET based assay - Method 1 pIC50 (converted)
measuredAttribute: IC50 (µM)

> print(dat)
                                    compound  experimentalresult
 1  COc1cnc(C(=O)Nc2ccc(F)c([C@]3(C(F)F)CC[C@@](C)(C#N)C(N)=N3)c2)cn1 [Compound 14]              0.0117
 2  COc1cnc(C(=O)Nc2ccc(F)c(C3(CF)CCC(C)(S(C)(=O)=O)C(N)=N3)c2)nc1 (centres unmarked) [Compound 45]             0.00316
 3  CCOc1cnc(C(=O)Nc2ccc(F)c(C3(CF)CCC(C)(S(C)(=O)=O)C(N)=N3)c2)cn1 (centres unmarked) [Compound 37]             0.00372
 4  CC1(S(C)(=O)=O)CCC(CF)(c2cc(NC(=O)c3ncc(C(F)(F)F)cn3)ccc2F)N=C1N (centres unmarked) [Compound 43]             0.00912
 5  COc1cnc(C(=O)Nc2ccc(F)c([C@]3(C(F)F)CC[C@](C)(C#N)C(N)=N3)c2)cn1 [Compound 11]               0.138
 6  CC1(S(C)(=O)=O)CCC(CF)(c2cc(NC(=O)c3cnc(C(F)F)cn3)ccc2F)N=C1N (centres unmarked) [Compound 42]              0.0038
 7  C[C@]1(c2cc(NC(=O)c3cnc(OCF)cn3)ccc2F)N=C(N)[C@](C)(S(C)(=O)=O)CC1(F)F [Compound 24]              0.0912
 8  COc1cnc(C(=O)Nc2ccc(F)c([C@]3(CF)CC[C@](C)(C#N)C(N)=N3)c2)cn1 [Compound 4]               0.851
 9  COc1cnc(C(=O)Nc2ccc(F)c([C@@]3(C)N=C(N)[C@@](C)(S(C)(=O)=O)C[C@@H]3F)c2)cn1 [Compound 18]                5.75
10  CC(C)S(=O)(=O)C1(C)CCC(CF)(c2cc(NC(=O)c3ccc(F)cn3)ccc2F)N=C1N (single isomer, unassigned) [Compound 33]             0.00427
11  CCC1(S(=O)(=O)CC)CCC(CF)(c2cc(NC(=O)c3ccc(F)cn3)ccc2F)N=C1N (centres unmarked) [Compound 30]              0.0158
12  COc1cnc(C(=O)Nc2ccc(F)c([C@@]3(C)N=C(N)[C@](C)(S(C)(=O)=O)C[C@@H]3F)c2)cn1 [Compound 17]              0.0309
13  COc1cnc(C(=O)Nc2ccc(F)c([C@]3(CF)CC[C@](C)(S(C)(=O)=O)C(N)=N3)c2)cn1 [Compound 1]                2.63
14  COc1cnc(C(=O)Nc2ccc(F)c([C@@]3(C)N=C(N)[C@@](C)(C#N)C[C@@H]3F)c2)cn1 [Compound 7]              0.0794
15  C[C@@]1(c2cc(NC(=O)c3ccc(F)cn3)ccc2F)CC[C@@](CF)(S(C)(=O)=O)C(N)=N1 [Compound 26]              0.0148
16  CC1(S(C)(=O)=O)CCC(CF)(c2cc(NC(=O)c3ccc(C#N)cn3)ccc2F)N=C1N (centres unmarked) [Compound 22]             0.00112
17  COc1cnc(C(=O)Nc2ccc(F)c([C@@]3(C(F)F)CC[C@@](C)(C#N)C(N)=N3)c2)cn1 [Compound 12]                6.76
18  COc1cnc(C(=O)Nc2ccc(F)c([C@@]3(C)N=C(N)[C@@](C)(C#N)C[C@H]3F)c2)cn1 [Compound 6]               0.145
19  CC1(S(C)(=O)=O)CCC(CF)(c2cc(NC(=O)c3cnc(OC(F)F)cn3)ccc2F)N=C1N (centres unmarked) [Compound 32]             0.00105
20  CC1(S(C)(=O)=O)CCC(CF)(c2cc(NC(=O)c3ncc(OC(F)F)cn3)ccc2F)N=C1N (centres unmarked) [Compound 36]             0.00427
21  CO[C@@H]1C[C@@](C)(S(C)(=O)=O)C(N)=N[C@]1(C)c1cc(NC(=O)c2cnc(OCF)cn2)ccc1F [Compound 48a]               0.024
22  COc1cnc(C(=O)Nc2ccc(F)c([C@@]3(C)N=C(N)[C@](C)(C#N)C[C@@H]3F)c2)cn1 [Compound 8]              0.0129
23  COc1cnc(C(=O)Nc2ccc(F)c([C@@]3(C)N=C(N)[C@@](C)(C#N)C[C@]3(C)F)c2)cn1 [Compound 28]                1.15
24  COc1cnc(C(=O)Nc2ccc(F)c([C@]3(CF)CC[C@@](C)(S(C)(=O)=O)C(N)=N3)c2)cn1 [Compound 2]             0.00229
25  C[C@@]1(S(C)(=O)=O)CC[C@@](CF)(c2cc(NC(=O)c3cnc(OCF)cn3)ccc2F)N=C1N [Compound 41]             0.00219
26  C[C@]1(S(C)(=O)=O)CC(F)(F)[C@@](C)(c2cc(NC(=O)c3cnc(OCF)cn3)ccc2F)N=C1N [Compound 23]                1.66
27  C[C@@]1(S(C)(=O)=O)CC[C@@](CF)(c2cc(NC(=O)c3ccc(F)cn3)ccc2F)N=C1N [Compound 20]             0.00302
28  CC1(S(C)(=O)=O)CCC(CF)(c2cc(NC(=O)c3ncc(F)cn3)ccc2F)N=C1N (centres unmarked) [Compound 38]             0.00389
29  CCS(=O)(=O)C1(C)CCC(CF)(c2cc(NC(=O)c3ccc(F)cn3)ccc2F)N=C1N (centres unmarked) [Compound 31]              0.0017
